Molecular target: MASP-2 CCP2-SP (Homo sapiens (Human))
Sequence (O00187 445-686): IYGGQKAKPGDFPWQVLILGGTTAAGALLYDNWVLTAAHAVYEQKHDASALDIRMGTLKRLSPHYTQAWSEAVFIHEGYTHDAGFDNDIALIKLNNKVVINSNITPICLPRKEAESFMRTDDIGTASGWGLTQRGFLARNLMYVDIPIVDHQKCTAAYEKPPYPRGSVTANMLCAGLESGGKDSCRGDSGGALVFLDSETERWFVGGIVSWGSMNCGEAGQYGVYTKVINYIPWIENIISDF
Sequence (O00187 364-432 partner): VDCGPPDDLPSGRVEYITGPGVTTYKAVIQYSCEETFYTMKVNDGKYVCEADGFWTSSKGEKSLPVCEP
Assay: MASP-2 co-crystallization, X-ray crystallography and structure analysis (H-bonds, van der Waals contacts)
Design: unit not given beside the values
Conditions: Table A5-1 pharmacophore: distance between elements, S2/S1 region
Structures can show the parent of a compound that is named as a salt.
Mark Met for d(H4,O1) under 4, Not met if at or over.

[[record]]
compound = "Cc1nc(N)ccc1CNC(=O)[C@H](C)NC(=O)[C@H]1C[C@@H](c2cccc3ccccc23)CCN1.Cl.Cl [1297_5]"
qualitative_label = "Not met"

[[record]]
compound = "O=c1oc(-c2ccccc2[N+](=O)[O-])nc2ccccc12 [compound 14]"
qualitative_label = "Met"

[[record]]
compound = "C[C@H](NC(=O)[C@H]1C[C@@H](c2ccccc2)CCN1)C(=O)NCc1cc(Cl)ccc1O.Cl [1078_10]"
qualitative_label = "Met"

[[record]]
compound = "C[C@H](NC(=O)[C@@H](CCc1ccccc1)NCc1ccc(N2CCOCC2)cc1)C(=O)NCc1ccc(C(=N)N)cc1 [compound 1149]"
qualitative_label = "Not met"

[[record]]
compound = "CC(=O)Nc1ccc(CCN[C@H](CCc2ccccc2)C(=O)N[C@@H](C)C(=O)NCc2ccc(N)nc2C)cc1 [compound 1368, Dihydrochloride]"
qualitative_label = "Not met"

[[record]]
compound = "C[C@H](NC(=O)[C@H](N)CCc1ccccc1)C(=O)NCc1ccc(N)nc1.Cl.Cl [1007_1]"
qualitative_label = "Met"

[[record]]
compound = "Cc1nc(N)ccc1CNC(=O)[C@H](C)NC(=O)[C@H]1C[C@H](Cc2cccc(Cl)c2)CN1.Cl.Cl [1328_4]"
qualitative_label = "Not met"

[[record]]
compound = "Cc1nc(N)ccc1CNC(=O)C(C)NC(=O)C1CC(c2cccc3ccccc23)CCN1.Cl.Cl (centres unmarked) [1297_3]"
qualitative_label = "Not met"


Hello, is d(H4,O1) of the following compound strictly smaller than 4? Cc1nc(N)ccc1CNC(=O)[C@H](C)NC(=O)[C@H]1C[C@H](Cc2ccccc2Br)CN1.O=C(O)C(F)(F)F.O=C(O)C(F)(F)F [1372_B] Not met

# strict comparison: is reported d(H4,O1) < 4? input = N=C(N)c1ccc(CNC(=O)[C@@H]2CCN2C(=O)[C@H](NCC(=O)O)C2Cc3ccccc3C2)cc1 [compound 1129] Not met

Is 4 strictly greater than the compound's reported d(H4,O1)? compound: C[C@H](NC(=O)[C@H]1C[C@@H](c2ccccc2)CCN1)C(=O)NCc1cc(Cl)ccc1O.Cl [1078_1] Met

Identify whether the compound CC(NC(=O)C(CCc1ccccc1)NCCCc1ccc(O)cc1)C(=O)NCc1ccc(C(=N)N)cc1.Cl.Cl (centres unmarked) [1145_A] records d(H4,O1) below 4. Not met

Quick check: does C[C@H](NC(=O)[C@H]1C[C@H](Cc2ccccc2)CN1)C(=O)NCc1ccc(C(=N)N)cc1.Cl.Cl [1306_1] have d(H4,O1) under 4? Not met

Does this compound meet the criterion d(H4,O1) < 4? Cc1nc(N)ccc1CNC(=O)[C@H](C)NC(=O)[C@H]1C[C@H](Cc2ccccc2Br)CN1.O=C(O)C(F)(F)F.O=C(O)C(F)(F)F [1372_A] Not met

Does this compound meet the criterion d(H4,O1) < 4? C[C@H](NC(=O)[C@H](N)C1Cc2ccccc2C1)C(=O)NCc1ccc2c(N)nccc2c1.Cl.Cl [1088_B] Not met

Take the compound C[C@H](NC(=O)[C@H]1C[C@@H](c2ccccc2)CCN1)C(=O)NCc1cc(Cl)ccc1O.Cl [1078_9] and say whether its d(H4,O1) is less than 4. Met

Confirm or reject: d(H4,O1) of C[C@H](NC(=O)[C@H]1C[C@@H](c2ccccc2)CCN1)C(=O)NCc1cc(Cl)ccc1O.Cl [1078_2] lies strictly below 4 Met

hey, is d(H4,O1) for Cc1nc(N)ccc1CNC(=O)[C@H](C)NC(=O)[C@H]1C[C@H](Cc2ccc3ccccc3c2)CN1 [compound 1338] lower than 4 or not? Not met

# TODO verify d(H4,O1) < 4 strictly for this compound: C[C@H](NC(=O)[C@H]1C[C@@H](c2ccccc2)CN1)C(=O)NCc1ccc2c(N)nccc2c1.Cl.Cl [1089_B] Met

Hi there! Is d(H4,O1) for C[C@H](NC(=O)[C@H]1C[C@@H](c2ccccc2)CCN1)C(=O)NCc1cc(Cl)ccc1O.Cl [1078_7] below 4, do you know? Met

Input C[C@H](NC(=O)[C@H]1C[C@@H](c2ccccc2)CCN1)C(=O)NCc1cc(Cl)ccc1O.Cl [1078_3] ; condition: d(H4,O1) strictly below 4. Does it hold? Met

Does Cc1nc(N)ccc1CNC(=O)C(C)NC(=O)C1CC(c2cccc3ccccc23)CCN1.Cl.Cl (centres unmarked) [1297_1] have d(H4,O1) strictly under 4? Not met

Dear colleague, could you confirm whether d(H4,O1) of Cc1nc(N)ccc1CNC(=O)[C@H](C)NC(=O)[C@H]1C[C@H](Cc2cc(-c3ccccc3)cs2)CN1 [compound 1399, Dihydrochloride] falls below 4? Thanks. Not met

The measured values listed here are drawn from patent US12195427B2.
